From: patent US9895338B1

Task for the reader: assign each of the following compounds its reported pIC50.
# System: HCT116 p53^−/− colon cancer cells
# Assay Remarks: MTT cytotoxicity, HCT116 p53-/-
# Assay type: cell-based, human
# Condition: MTT, 72 h
One number for each entry, as −log10 of the molar value.

Some compounds with recorded pIC50:
compound="F[P-](F)(F)(F)(F)F.F[P-](F)(F)(F)(F)F.F[P-](F)(F)(F)(F)F.[Co+3].c1ccc(-c2ccccn2)nc1.c1ccc(-c2ccccn2)nc1.c1ccc(-c2ccccn2)nc1 [complex (VI), [Co^III(N^N)3](PF6)3]" recorded_result=4.35
compound="COc1ccnc(-c2cc(OC)ccn2)c1.COc1ccnc(-c2cc(OC)ccn2)c1.COc1ccnc(-c2cc(OC)ccn2)c1.F[P-](F)(F)(F)(F)F.F[P-](F)(F)(F)(F)F.F[P-](F)(F)(F)(F)F.[Co+3] [complex (VII), [Co^III(4,4′-(OMe)2-Bpy)3](PF6)3]" recorded_result=4.38
compound="F[P-](F)(F)(F)(F)F.F[P-](F)(F)(F)(F)F.[Co+2].c1ccc(-c2ccccn2)nc1.c1ccc(-c2ccccn2)nc1.c1ccc(-c2ccccn2)nc1 [complex (V), [Co^II(N^N)3](PF6)2]" recorded_result=4.54

Looking up Cc1ccnc(-c2cc(C)ccn2)c1.Cc1ccnc(-c2cc(C)ccn2)c1.Cc1ccnc(-c2cc(C)ccn2)c1.F[P-](F)(F)(F)(F)F.F[P-](F)(F)(F)(F)F.F[P-](F)(F)(F)(F)F.[Co+3] [complex (IV), [Co^III(4,4′-Me2-Bpy)3.](PF6)3] , I found its pIC50 recorded as 5.04

----------
# System: Taxol-resistant A549 cancer cells
# Assay Remarks: MTT cytotoxicity, taxol-resistant A549
# Format: cell-based
# Condition: A549, MTT, 72 h
Would you kindly list IC50 for each of these compounds?
Numbers only, in µM.

Completed entries (count: 3):
compound="COc1ccnc(-c2cc(OC)ccn2)c1.COc1ccnc(-c2cc(OC)ccn2)c1.COc1ccnc(-c2cc(OC)ccn2)c1.F[P-](F)(F)(F)(F)F.F[P-](F)(F)(F)(F)F.F[P-](F)(F)(F)(F)F.[Co+3] [complex (VII), [Co^III(4,4′-(OMe)2-Bpy)3](PF6)3]" property=IC50 recorded_result=2.85
compound="F[P-](F)(F)(F)(F)F.F[P-](F)(F)(F)(F)F.F[P-](F)(F)(F)(F)F.[Co+3].c1ccc(-c2ccccn2)nc1.c1ccc(-c2ccccn2)nc1.c1ccc(-c2ccccn2)nc1 [complex (VI), [Co^III(N^N)3](PF6)3]" property=IC50 recorded_result=11.1
compound="Cc1ccnc(-c2cc(C)ccn2)c1.Cc1ccnc(-c2cc(C)ccn2)c1.Cc1ccnc(-c2cc(C)ccn2)c1.F[P-](F)(F)(F)(F)F.F[P-](F)(F)(F)(F)F.F[P-](F)(F)(F)(F)F.[Co+3] [complex (IV), [Co^III(4,4′-Me2-Bpy)3.](PF6)3]" property=IC50 recorded_result=2.85

Read the next record carefully.
Input F[P-](F)(F)(F)(F)F.F[P-](F)(F)(F)(F)F.[Co+2].c1ccc(-c2ccccn2)nc1.c1ccc(-c2ccccn2)nc1.c1ccc(-c2ccccn2)nc1 [complex (V), [Co^II(N^N)3](PF6)2] . Output IC50: 7.85

----------
# System: LLC-1 (lung cancer)
# Assay Remarks: MTT cytotoxicity assay, LLC-1
# Type: cell-based
# Condition: LLC-1, MTT, 72 h
Property: IC50 (µM)
Numbers only, in µM.

Give IC50 for each listed item.
1. F[P-](F)(F)(F)(F)F.F[P-](F)(F)(F)(F)F.[Co+2].c1ccc(-c2ccccn2)nc1.c1ccc(-c2ccccn2)nc1.c1ccc(-c2ccccn2)nc1 [complex (V), [Co^II(N^N)3](PF6)2]
2. CCCCCCCCCc1ccnc(-c2cc(CCCCCCCCC)ccn2)c1.CCCCCCCCCc1ccnc(-c2cc(CCCCCCCCC)ccn2)c1.CCCCCCCCCc1ccnc(-c2cc(CCCCCCCCC)ccn2)c1.F[P-](F)(F)(F)(F)F.F[P-](F)(F)(F)(F)F.F[P-](F)(F)(F)(F)F.[Co+3] [complex (VIII), [Co^III(4,4′-(C9H19)2-Bpy)3](PF6)3]

Outgoing:
[17.2, 10.4]

For each of the molecules below, state IC50.
1. F[P-](F)(F)(F)(F)F.F[P-](F)(F)(F)(F)F.F[P-](F)(F)(F)(F)F.[Co+3].c1ccc(-c2ccccn2)nc1.c1ccc(-c2ccccn2)nc1.c1ccc(-c2ccccn2)nc1 [complex (VI), [Co^III(N^N)3](PF6)3]
2. Cc1ccnc(-c2cc(C)ccn2)c1.Cc1ccnc(-c2cc(C)ccn2)c1.Cc1ccnc(-c2cc(C)ccn2)c1.F[P-](F)(F)(F)(F)F.F[P-](F)(F)(F)(F)F.F[P-](F)(F)(F)(F)F.[Co+3] [complex (IV), [Co^III(4,4′-Me2-Bpy)3.](PF6)3]
3. COc1ccnc(-c2cc(OC)ccn2)c1.COc1ccnc(-c2cc(OC)ccn2)c1.COc1ccnc(-c2cc(OC)ccn2)c1.F[P-](F)(F)(F)(F)F.F[P-](F)(F)(F)(F)F.F[P-](F)(F)(F)(F)F.[Co+3] [complex (VII), [Co^III(4,4′-(OMe)2-Bpy)3](PF6)3]

Outgoing:
[29.2, 3.39, 8.71]

----------
# System: HCT116 p53^−/− colon cancer cells
# Assay Remarks: MTT cytotoxicity, HCT116 p53-/-
# Assay type: cell-based, human
# Condition: HCT116 p53^−/− over HCT116 p53^+/+
Property: Resistant Factor
Give bare numbers.

# count of solved cases: 3
compound="COc1ccnc(-c2cc(OC)ccn2)c1.COc1ccnc(-c2cc(OC)ccn2)c1.COc1ccnc(-c2cc(OC)ccn2)c1.F[P-](F)(F)(F)(F)F.F[P-](F)(F)(F)(F)F.F[P-](F)(F)(F)(F)F.[Co+3] [complex (VII), [Co^III(4,4′-(OMe)2-Bpy)3](PF6)3]" experimental_system="HCT116 p53^−/− colon cancer cells" recorded_result=0.53
compound="F[P-](F)(F)(F)(F)F.F[P-](F)(F)(F)(F)F.F[P-](F)(F)(F)(F)F.[Co+3].c1ccc(-c2ccccn2)nc1.c1ccc(-c2ccccn2)nc1.c1ccc(-c2ccccn2)nc1 [complex (VI), [Co^III(N^N)3](PF6)3]" experimental_system="HCT116 p53^−/− colon cancer cells" recorded_result=1.00
compound="Cc1ccnc(-c2cc(C)ccn2)c1.Cc1ccnc(-c2cc(C)ccn2)c1.Cc1ccnc(-c2cc(C)ccn2)c1.F[P-](F)(F)(F)(F)F.F[P-](F)(F)(F)(F)F.F[P-](F)(F)(F)(F)F.[Co+3] [complex (IV), [Co^III(4,4′-Me2-Bpy)3.](PF6)3]" experimental_system="HCT116 p53^−/− colon cancer cells" recorded_result=0.59

Measured Resistant Factor of F[P-](F)(F)(F)(F)F.F[P-](F)(F)(F)(F)F.[Co+2].c1ccc(-c2ccccn2)nc1.c1ccc(-c2ccccn2)nc1.c1ccc(-c2ccccn2)nc1 [complex (V), [Co^II(N^N)3](PF6)2] : 0.85

----------
# Tested on: HeLa cells (cervical cancer)
# Assay Remarks: MTT cytotoxicity assay, HeLa
# Assay type: cell-based
# Condition: 72 h
Provide the reported pIC50 of each item.
Numbers only, as −log10 of the molar value.

Examples with answers:
molecule="CCCCCCCCCc1ccnc(-c2cc(CCCCCCCCC)ccn2)c1.CCCCCCCCCc1ccnc(-c2cc(CCCCCCCCC)ccn2)c1.CCCCCCCCCc1ccnc(-c2cc(CCCCCCCCC)ccn2)c1.F[P-](F)(F)(F)(F)F.F[P-](F)(F)(F)(F)F.F[P-](F)(F)(F)(F)F.[Co+3] [complex (VIII), [Co^III(4,4′-(C9H19)2-Bpy)3](PF6)3]" experimental_system="HeLa cells (cervical cancer)" recorded_result=4.67
molecule="Cc1ccnc(-c2cc(C)ccn2)c1.Cc1ccnc(-c2cc(C)ccn2)c1.Cc1ccnc(-c2cc(C)ccn2)c1.F[P-](F)(F)(F)(F)F.F[P-](F)(F)(F)(F)F.F[P-](F)(F)(F)(F)F.[Co+3] [complex (IV), [Co^III(4,4′-Me2-Bpy)3.](PF6)3]" experimental_system="HeLa cells (cervical cancer)" recorded_result=4.92
molecule="F[P-](F)(F)(F)(F)F.F[P-](F)(F)(F)(F)F.[Co+2].c1ccc(-c2ccccn2)nc1.c1ccc(-c2ccccn2)nc1.c1ccc(-c2ccccn2)nc1 [complex (V), [Co^II(N^N)3](PF6)2]" experimental_system="HeLa cells (cervical cancer)" recorded_result=4.62
molecule="F[P-](F)(F)(F)(F)F.F[P-](F)(F)(F)(F)F.F[P-](F)(F)(F)(F)F.[Co+3].c1ccc(-c2ccccn2)nc1.c1ccc(-c2ccccn2)nc1.c1ccc(-c2ccccn2)nc1 [complex (VI), [Co^III(N^N)3](PF6)3]" experimental_system="HeLa cells (cervical cancer)" recorded_result=4.44

Could you now consider this next molecule?
Field pIC50 (HeLa cells (cervical cancer)), entry COc1ccnc(-c2cc(OC)ccn2)c1.COc1ccnc(-c2cc(OC)ccn2)c1.COc1ccnc(-c2cc(OC)ccn2)c1.F[P-](F)(F)(F)(F)F.F[P-](F)(F)(F)(F)F.F[P-](F)(F)(F)(F)F.[Co+3] [complex (VII), [Co^III(4,4′-(OMe)2-Bpy)3](PF6)3] : 4.89
